target: PDGF-receptor beta enzyme comprising the tyrosine kinase domain (Homo sapiens); construct: from amino acid 545 to 1106 of GenBank Access NO: AAA36427; assay: Inhibition of PDGF-receptor kinase activity (cell-free, PLC1 peptide, 33P Flashplate); type: biochemical; settings: PDGF-R kinase activity; read-out: IC50
pIC50: −log10 of the molar value.
I would appreciate it if you labelled entries class 1 when pIC50 is 6 or higher, otherwise class 0.

Past entries and their recorded results:
COc1cc2c(cc1OC)-c1n[nH]c(Nc3cccc(C#N)c3)c1C2 ... class 1
CCOc1cccc(Nc2[nH]nc3c2C(CC)c2cc(OC)c(OC)cc2-3)c1 (single isomer, unassigned) [Compound 556] ... class 1
Brc1cccc(Nc2[nH]nc3c2Cc2c(OCCN4CCCC4)cccc2-3)c1 ... class 1
COCCCOc1cc2c(cc1OCCCOC)-c1n[nH]c(Nc3cccnc3)c1C2 ... class 1
COc1cc2c(cc1OC)-c1c(c(Nc3cccc(F)c3)nn1C(=O)OCCOCCOCCO)C2 ... class 1

State whether the measured pIC50 reaches 6, counting equality as reaching it, for `Fc1ccc2c(c1)Cc1c-2n[nH]c1NCc1cc(Cl)cc(Cl)c1`
class 0

What do you have for `FC(F)(F)Oc1ccc(Nc2[nH]nc3c2Cc2cc(Cl)ccc2-3)cc1` ?
class 0

What do you have for `CCc1ccccc1Nc1[nH]nc2c1Cc1cc(OC)c(OC)cc1-2` ?
class 0

* * *

target: PDGF-receptor beta enzyme comprising the tyrosine kinase domain (Homo sapiens, UniProt P09619); construct: from amino acid 545 to 1106 of GenBank Access NO: AAA36427; experiment: Inhibition of PDGF-receptor kinase activity (cell-free, PLC1 peptide, 33P Flashplate); assay type: biochemical; conditions: PDGF-R kinase activity; compound at 10 uM; read-out: Percent Inhibition @ 10 uM
Sequence (P09619 545-1106): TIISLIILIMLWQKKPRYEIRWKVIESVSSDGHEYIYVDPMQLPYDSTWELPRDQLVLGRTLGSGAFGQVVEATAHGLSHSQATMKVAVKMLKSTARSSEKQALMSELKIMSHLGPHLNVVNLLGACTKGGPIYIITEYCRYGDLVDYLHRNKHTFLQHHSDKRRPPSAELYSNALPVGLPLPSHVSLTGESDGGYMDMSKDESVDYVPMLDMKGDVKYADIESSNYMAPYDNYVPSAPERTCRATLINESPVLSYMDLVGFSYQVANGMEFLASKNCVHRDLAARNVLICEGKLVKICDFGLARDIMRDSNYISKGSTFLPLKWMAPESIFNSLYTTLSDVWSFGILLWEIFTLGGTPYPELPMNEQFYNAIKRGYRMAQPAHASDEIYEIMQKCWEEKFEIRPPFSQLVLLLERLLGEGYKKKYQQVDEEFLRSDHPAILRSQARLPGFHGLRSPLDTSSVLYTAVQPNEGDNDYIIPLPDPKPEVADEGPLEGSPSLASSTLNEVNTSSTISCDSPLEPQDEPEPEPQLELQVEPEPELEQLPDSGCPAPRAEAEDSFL
# inhibition at 10 µM per entry
Give the number; % is assumed, so skip it.

See these solved cases before continuing.
COc1cc2c(cc1OC)-c1c(c(Nc3cccc(F)c3)nn1S(=O)(=O)N(C)C)C2 [Compound 447] ... 7
COCCCOc1cc2c(cc1OC)-c1n[nH]c(Nc3ccc(F)c(Cl)c3)c1C2 [Compound 166] ... 88
CCC1c2cc(OC)c(OC)cc2-c2c1c(Nc1cccc(Br)c1)nn2C(=O)COC (centres unmarked) [Compound 514] ... 85
CCN(CC)C(=O)CC(=O)n1nc(Nc2cccc(F)c2)c2c1-c1cc(OC)c(OC)cc1C2 [Compound 537] ... 104
CC(C)Oc1cc2c(cc1OC(C)C)C(C)c1c-2n[nH]c1Nc1ccc(F)cc1 (centres unmarked) [Compound 356] ... 70

Can you share its inhibition at 10 µM? I mean this compound: CCOC(=O)Cn1nc(Nc2cccc(F)c2)c2c1-c1cc(OC)c(OC)cc1C2 [Compound 511]
51

What do you have for Cc1ccc2c(c1)-c1n[nH]c(Nc3ccc4[nH]ccc4c3)c1C2 [Compound 311] ?
68.5

What do you have for COc1cc2c(cc1OC)-c1c(c(Nc3cccc(F)c3)nn1C(=O)OCCOCCOCCO)C2 [Compound 471] ?
90.5

* * *

target: PDGF-receptor beta enzyme comprising the tyrosine kinase domain (Homo sapiens, UniProt P09619); construct: from amino acid 545 to 1106 of GenBank Access NO: AAA36427; experiment: Inhibition of PDGF-receptor kinase activity (cell-free, PLC1 peptide, 33P Flashplate); assay type: biochemical; details: PDGF-R kinase activity; compound at 10 uM; read-out: Percent Inhibition @ 10 uM
I would appreciate it if you labelled entries yes when inhibition at 10 µM is 60% or higher, otherwise no.

COc1cc2c(c(N)c1OC)Cc1c-2n[nH]c1Nc1cccc(F)c1 ... yes
COc1cccc(Nc2[nH]nc3c2Cc2cc(OCC(O)CN4CCCC4)c(OC)cc2-3)c1 (stereo not drawn) ... yes
CCOc1cc2c(cc1OCCCO)Cc1c-2n[nH]c1Nc1cccnc1 ... yes

State whether the measured inhibition at 10 µM reaches 60%, counting equality as reaching it, for `COCn1nc(Nc2cccc(F)c2)c2c1-c1cc(OC)c(OC)cc1C2`
no

What do you have for `COc1cc2c(cc1OC)-c1n[nH]c(Nc3cccc(SC)c3)c1C2` ?
yes

What do you have for `COc1cc2c(cc1OCCCN1CCCC1)Cc1c-2n[nH]c1Nc1ccc(F)c(Cl)c1` ?
yes

What do you have for `COc1cc2c(cc1OC)-c1n[nH]c(Nc3ccc4c(c3)CCC4)c1C2` ?
no

* * *

# inhibition at 10 µM per entry
target: PDGF-receptor beta enzyme comprising the tyrosine kinase domain (Homo sapiens, UniProt P09619); construct: from amino acid 545 to 1106 of GenBank Access NO: AAA36427; assay: Inhibition of PDGF-receptor kinase activity (cell-free, PLC1 peptide, 33P Flashplate); type: biochemical; conditions: PDGF-R kinase activity; compound at 10 uM; read-out: Percent Inhibition @ 10 uM
Give the number; % is assumed, so skip it.

See these solved cases before continuing.
COc1cc2c(cc1F)Cc1c-2n[nH]c1Nc1ccc(F)cc1 [Compound 361] ... 100
CCOc1cc2c(cc1OCC(O)CN1CCCC1)-c1n[nH]c(Nc3cccnc3)c1C2 (stereo not shown) [Compound 461] ... 97.5
CCC1c2cc(OC)c(OC)cc2-c2c1c(Nc1cccc(Br)c1)nn2C(=O)c1ccccc1 (stereo not shown) [Compound 546] ... 72.5

Consider the additional compound presented here.
Can you share its inhibition at 10 µM? I mean this compound: COc1ccc(Nc2[nH]nc3c2Cc2cc(OC)c(OC)cc2-3)c(OC)c1 [Compound 47]
47

* * *

Measurement record for c-Abl kinase (Abelson murine leukemia virus, UniProt P00521); quantity recorded: IC50.
Give the number; nM is assumed, so skip it.

Can you share its IC50? I mean this molecule: COc1cc2c(cc1OCCCN1CCOCC1)Cc1c-2n[nH]c1Nc1cccc(Br)c1 [Compound 130]
236

What do you have for CN1CCN(c2ccc3c(c2)Cc2c-3n[nH]c2Nc2cccc(Br)c2)CC1 [Compound 122] ?
1260

* * *

Biological target: PDGF-receptor beta enzyme comprising the tyrosine kinase domain (Homo sapiens, UniProt P09619)
Construct: from amino acid 545 to 1106 of GenBank Access NO: AAA36427
Assay: Inhibition of PDGF-receptor kinase activity (cell-free, PLC1 peptide, 33P Flashplate)
Assay type: biochemical
Conditions: PDGF-R kinase activity; compound at 10 uM; read-out: Percent Inhibition @ 10 uM
Method: PDGF-R kinase activity was assayed by its ability to phosphorylate one of its target proteins, PLCγ, in a cell-free system, in particular, a PLC1 peptide comprising the tyrosine residue where the phosphorylation occurs was used for the assay. […] In order to test the potency of inhibition of present compounds, an IC50 for an individual compound was measured using the above procedure. […]
# inhibition at 10 µM per entry
Give the number; % is assumed, so skip it.

See these solved cases before continuing.
COc1ccc2c(c1)Cc1c-2n[nH]c1Nc1cccnc1 ... 86
COc1cc2c(cc1OC)C(C)c1c-2n[nH]c1Nc1cccnc1Cl (single isomer, unassigned) ... 102
COc1cccc(Nc2[nH]nc3c2C(C(C)C)c2cc(OC)c(OC)cc2-3)c1 (stereo not drawn) ... 50
COc1cc2c(cc1OC)-c1c(c(Nc3cccc(F)c3)nn1C(=O)NCCNC(=O)C(C)C)C2 ... 33
COc1ccc2c(c1)Cc1c-2n[nH]c1Nc1ccc(OC)c(OC)c1 ... 57
COc1cccc(Nc2[nH]nc3c2Cc2cc4c(cc2-3)OCO4)c1 ... 91
COc1cccc(Nc2n[nH]c3c2Cc2sccc2-3)c1 ... 102
Brc1cccc(Nc2[nH]nc3c2Cc2cc4c(cc2-3)OCO4)c1 ... 91

Can you share its inhibition at 10 µM? I mean this compound: `c1cncc(Nc2[nH]nc3c2Cc2cc4c(cc2-3)OCO4)c1`
65

What do you have for `COc1cc2c(cc1OC)-c1n[nH]c(Nc3cccc(C(=O)N4CCN(C)CC4)c3)c1C2` ?
80.5

What do you have for `COc1ccc(OC)c(Nc2[nH]nc3c2Cc2cc(OCCCN(C)C)ccc2-3)c1` ?
21.5

What do you have for `Fc1ccc(Nc2[nH]nc3c2oc2ccccc23)cc1Cl` ?
100

What do you have for `COc1cc2c(cc1OCCCN(C)C)Cc1c-2n[nH]c1Nc1cccc(F)c1` ?
83

* * *

Target: PDGF-receptor beta enzyme comprising the tyrosine kinase domain (Homo sapiens)
Construct: from amino acid 545 to 1106 of GenBank Access NO: AAA36427
Test: Inhibition of PDGF-receptor kinase activity (cell-free, PLC1 peptide, 33P Flashplate)
Format: biochemical
Details: PDGF-R kinase activity; compound at 10 uM; read-out: Percent Inhibition @ 10 uM
Method: PDGF-R kinase activity was assayed by its ability to phosphorylate one of its target proteins, PLCγ, in a cell-free system, in particular, a PLC1 peptide comprising the tyrosine residue where the phosphorylation occurs was used for the assay. […] In order to test the potency of inhibition of present compounds, an IC50 for an individual compound was measured using the above procedure. […]
quantity-kind: inhibition at 10 µM

COc1cc2c(cc1OC)C(C)c1c-2n[nH]c1Nc1cccc(F)c1 (stereo not shown) ... 96%
COc1cc2c(cc1OC)-c1c(c(Nc3cccc(F)c3)nn1C(=O)Oc1ccccc1Cl)C2 ... 86%
COC(=O)CCCC(=O)n1nc(Nc2cccc(F)c2)c2c1-c1cc(OC)c(OC)cc1C2 ... 92%

Can you share its inhibition at 10 µM? I mean this compound: `COc1cc2c(cc1OC)-c1n[nH]c(Nc3cccc(F)c3)c1C2`
108%

The reported numbers originate from patent US7196110B2.
